Readings of IC50 for the listed molecules
- system: CCR2 (Homo sapiens, UniProt P41597)
- Sequence (P41597 whole entry, species assumed): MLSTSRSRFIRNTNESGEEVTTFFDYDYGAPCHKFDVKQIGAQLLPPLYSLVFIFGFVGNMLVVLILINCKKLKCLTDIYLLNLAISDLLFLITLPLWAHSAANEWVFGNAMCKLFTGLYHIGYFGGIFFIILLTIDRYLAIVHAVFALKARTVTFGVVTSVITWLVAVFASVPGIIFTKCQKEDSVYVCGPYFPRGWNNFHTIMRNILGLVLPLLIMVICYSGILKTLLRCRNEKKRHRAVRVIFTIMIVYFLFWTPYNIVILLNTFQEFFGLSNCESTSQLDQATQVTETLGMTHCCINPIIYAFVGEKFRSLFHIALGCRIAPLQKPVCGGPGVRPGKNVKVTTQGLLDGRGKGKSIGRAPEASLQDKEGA
- assay-procedure: CCR2 in vitro test: intracellular calcium signal detected by FLIPR
- assay-context: HEK293 cells expressing CCR2, agonist MCP-1 at EC80, calcium signal
Express your answer in nM, writing the number without its unit.

Check out these entries, answers already filled in.
molecule	uom	observed-measurement
CCCCOCCOc1ccc(-c2ccc(OC)c(/C=C/C(=O)Nc3ccc([S@+]([O-])Cc4cncn4CC)cc3)c2)cc1	nM	70.1
CCCCOCCOc1ccc(-c2ccc(OC)c(/C=C/C(=O)Nc3ccc([S+]([O-])Cc4c(C)ncn4CC)cc3)c2)cc1 (centres unmarked)	nM	77.6
CCCCOCCOc1ccc(-c2ccc(OC)c(/C=C/C(=O)Nc3ccc([S@@+]([O-])Cc4cncn4CCC)cc3)c2)cc1	nM	13

**Q:** Query: IC50; subject: CCCCOc1ccc(-c2ccc(Cl)c(/C=C/C(=O)Nc3ccc([S+]([O-])Cc4cncn4CC)cc3)c2)cc1 (centres unmarked)
**A:** 68.1

**Q:** Could you share which IC50 value was measured for CCCCOCCOc1ccc(-c2cccc(/C=C(\C)C(=O)Nc3ccc([S@@+]([O-])Cc4cncn4CCC)cc3)c2)cc1 ?
**A:** 17.3
